These entries and their values trace back to patent US6342765B1.

- target-entity: Farnesyl protein transferase (FPT) (Homo sapiens, UniProt P49354+P49356)
- Construct: partially purified from human placenta
- experimental-protocol: In-vitro farnesyl protein transferase assay (farnesylation of Ki-ras with radiolabelled farnesyl pyrophosphate)
- condition-context: read-out: IC50 in the above test
- Method: The following stock solutions were used and the assays were conducted in 96 well plates: TRIS Buffer (500 mM TRIS, 50 mM MgCl2.6H2O, pH=8.0); Farnesyl pyrophosphate (6.4 mg/ml); Aprotinin (1.9 mg/ml); Ki-ras (0.5 mg/ml, stored at −80° C.); Acid ethanol (850 ml absolute ethanol+150 ml concentrated HCl). […]

[
  {
    "molecule": "CSCC[C@H](NC(=O)c1ccc(COC(Cn2ccnc2)c2ccc(F)cc2)cc1-c1ccc(F)cc1)C(=O)O (stereo partly shown)",
    "IC50": "~1 nM"
  }
]
